- Test system: glutathione-S-transferase fusion protein of kinase-inactive ERK1 (GSTERK1K71R)
- testDetails: Kinase activity of the modified MEK1 peptides, GSTERK1K71R substrate, [γ-32P]ATP
- Type: biochemical
- studyConditions: after Raf activation; 50 ng modified MEK peptide, 10 μM ATP, room temperature 20 minutes; initial experiments
parameter: specific activities (pmol PO4 min-1 mg-1)
Lab book: enter the figure in pmol PO4 min-1 mg-1, no units written.

For MEK1-C1 (d280-323) (protein) EAFLTQKQKVGELKDDDFEKISELGAGNGGVVFKVSHKPSGLVMARKLIHLEIKPAIRNQIIRELQVLHECNSPYIVGFYGAFYSDGEISICMEHMDGGSLDQVLKKAGRIPEQILGKVSIAVIKGLTYLREKHKIMHRDVKPSNILVNSRGEIKLCDFGVSGQLIDSMANSFVGTRSYMSPERLQGTHYSVQSDIWSMGLSLVEMAVGRYPIPPPDAKELELMFGCQVKLPSGVFSLEFQDFVNKCLIKNPAERADLKQLMVHAFIKRSDAEEVDFAGWLCSTIGLNQPSTPTHAAGV , write its specific activities.
35.9
